test system: Vero E6 infected with SARS-CoV-2; assay: morphology score (similarity to uninfected cells); higher = more like uninfected cells; conditions: 24 h
# cutoff 0.02 applies to morphology score; >= gives true, < gives false

Here's what some known entries look like.
compound	answerLabel
C[C@H]1CCc2c(cc(Br)c(F)c2Br)N1C=O (10 µM)	true
O=NN(CCCl)C(=O)NC1CCCCC1 [lomustine] (10 µM)	false
NCC1(CC(=O)O)CCCCC1 [gabapentin] (10 µM)	false
CC12CCC(CC1=O)C2(C)C (stereo not drawn) [camphor-(+)] (10 µM)	true
CC(C)(Oc1ccc(CCNC(=O)c2ccc(Cl)cc2)cc1)C(=O)O [bezafibrate] (10 µM)	true
COc1ccc(/C=C2\CCCN=C2c2cccnc2)c(OC)c1 (10 µM)	true

Test whether the compound Cc1cccn2c(=O)c(-c3nnn[nH]3)cnc12 [pemirolast] (10 µM) records morphology score of 0.02 or higher.
true

Test whether the compound C=CC(=O)Nc1ccc2ncnc(Nc3cccc(Br)c3)c2c1 (0.833333 µM) records morphology score of 0.02 or higher.
true

Test whether the compound CC(C)c1cc2c(cc1S(=O)(=O)O)[C@@]1(C)CCC[C@@](C)(C(=O)O)[C@@H]1CC2 [ecabet] (10 µM) records morphology score of 0.02 or higher.
true

* * *

test system: Vero E6 infected with SARS-CoV-2; experiment: inhibition of SARS-CoV-2 cytopathic effect; higher = more antiviral protection, active = above 15; conditions: 100 nM; 48 h
observationType: inhibition of SARS-CoV-2 cytopathic effect (%)
Entry rule: numbers only, all in %.

Here are 5 compounds together with their reported answers.
compound	scaleUnit	assayResult
O=C(N[C@H]1CCN(C(=O)c2cc(C(F)(F)F)cc(C(F)(F)F)c2)[C@H](Cc2ccc(Cl)cc2)C1)c1ccnc2ccccc12	%	1.01
O=C(c1ccc(CN2CCOCC2)cc1)N1CCN(C2CC2)CC1 [bavisant]	%	-1.82
CC[N+](C)(CC)CCOC(=O)C(O)(c1ccccc1)C1CCCCC1 (centres undefined) [oxyphenonium]	%	-2.81
CC/C=C\C/C=C\C/C=C\C/C=C\C/C=C\C/C=C\CCC(=O)OCC [doconexent-ethyl-ester]	%	0.45
Cc1ncc(CO)c(C=O)c1O [pyridoxal]	%	0.26

Reported inhibition of SARS-CoV-2 cytopathic effect, compound C=CCN1CCc2nc(N)sc2CC1 [talipexole] : ____
0.94

Reported inhibition of SARS-CoV-2 cytopathic effect, compound CCCCCCCCCCCCC[N+](C)(C)Cc1ccccc1 [benzalkonium] : ____
-0.42

Reported inhibition of SARS-CoV-2 cytopathic effect, compound C[C@H](Cc1cc2c(c(C(N)=O)c1)N(CCCO)CC2)NCCOc1ccccc1OCC(F)(F)F [silodosin] : ____
2.16

Reported inhibition of SARS-CoV-2 cytopathic effect, compound O=C1CN=C(c2cccc(Br)c2)c2oc3ccccc3c2N1 : ____
-1.9

* * *

system: Vero E6 infected with SARS-CoV-2; experiment: inhibition of SARS-CoV-2 cytopathic effect; higher = more antiviral protection, active = above 15; conditions: 833.33 nM; 48 h
Recorded inhibition of SARS-CoV-2 cytopathic effect, one value per entry.
Entry rule: numbers only, all in %.

molecule	scaleUnit	assayResult
O=c1[nH]nc2c3c(cccc13)N=C(CN1Cc3ccccc3C1)N2	%	0.24
O=c1cc(-c2ccccc2)oc2cc(O)cc(O)c12 [chrysin]	%	-7.18
CCOC(=O)[C@@H](C)Oc1cccc2c(=O)n(CC(=O)Nc3ccc4c(c3)OCCO4)ccc12	%	-5.6
O=C(/C=C/c1ccc2c(c1)OCO2)N1CCCCC1 [ilepcimide]	%	-1.12

Now turn to the next molecule.
// map CSc1ccccc1Nc1nc(N2CCNCC2)nc2c(NCC3CC3)ncnc12 to recorded inhibition of SARS-CoV-2 cytopathic effect (system: Vero E6 infected with SARS-CoV-2)
0.92
